- Tested on: Phaedon cochleariae
- protocol-text: Phaedon cochleariae spray test (PHAECO), cabbage leaves, ppm
- Assay type: in vivo
- condition-info: 168 h, 0.8 ppm, 7 dat
measurement-name: inhibition at 0.8 ppm (%)
Give a bare numeral; the unit % is implied.

Below: 3 compounds and their reported inhibition at 0.8 ppm.
CCN(C(=O)c1c(C(F)(F)F)c(C(F)(F)C(F)(F)F)nn1C)c1ccc(Cl)c(C(=O)NC2(C#N)CC2)c1
100
CN(C(=O)c1c(C(F)(F)F)c(C(F)(F)C(F)(F)F)nn1C)c1ccc(Cl)c(C(=O)NC2(C#N)CC2)c1
100
CN(C(=O)c1c(C(F)(F)F)c(C(F)(F)C(F)(F)F)nn1C)c1ccc(Cl)c(C(=O)NC2CC2)c1 [Ik-132, reference compound]
5

Let's switch to this compound now.
stdin: For the compound CCN(C(=O)c1c(C(F)(F)F)c(C(F)(F)C(F)(F)F)nn1C)c1ccc(Cl)c(C(=O)NC2CC2)c1 [Ik-136, reference compound] , give its measured inhibition at 0.8 ppm value.
stdout: 0
